# target-system: HLA-A*2401 (human)
# assay-info: inhibition of 125I-labelled standard peptide binding to purified HLA, gel filtration
Listed here are binders together with their documented relative binding ratio (IC50 of standard peptide / IC50 of test peptide).
Please reply with the value in numeric form only.

Guide cases for relative binding ratio (IC50 of standard peptide / IC50 of test peptide), answers given:
- binder: "SYLEDVRL [HER2/neu peptide, position 834, 8 amino acids]"
  readout-value: 0.0059
- binder: "SYGVTVWELM [HER2/neu peptide, position 907, 10 amino acids]"
  readout-value: 0.063
- binder: "RFTHQSDVW [HER2/neu peptide, position 898, 9 amino acids]"
  readout-value: 0.011
- binder: "TFGAKPYDGI [HER2/neu peptide, position 917, 10 amino acids]"
  readout-value: 0.0002
- binder: "SWLGLRSLREL [HER2/neu peptide, position 451, 11 amino acids]"
  readout-value: 0.0036
- binder: "RWGLLLAL [HER2/neu peptide, position 8, 8 amino acids]"
  readout-value: 0.025
- binder: "TYLPTNASL [HER2/neu peptide, position 63, 9 amino acids]"
  readout-value: 0.038
- binder: "SMPNPEGRYTF [HER2/neu peptide, position 281, 11 amino acids]"
  readout-value: 0.018

Assign relative binding ratio (IC50 of standard peptide / IC50 of test peptide) to the following record: SWLGLRSL [HER2/neu peptide, position 451, 8 amino acids]
-0.0003

Assign relative binding ratio (IC50 of standard peptide / IC50 of test peptide) to the following record: TMRRLLQETEL [HER2/neu peptide, position 686, 11 amino acids]
-0.0003

Assign relative binding ratio (IC50 of standard peptide / IC50 of test peptide) to the following record: SMPNPEGRY [HER2/neu peptide, position 281, 9 amino acids]
0.0001

The reported measurements were obtained from patent US20040018971A1.
